ASSAY_DETAILS: Pharmacokinetic study in C57BL/6 mice
Assay type: in vivo
EXPERIMENTAL_SETUP: male, mouse, plasma, iv, I.V. (2 mg/kg), read-out: Vdss
Assignment: determine reported Vd for the given compounds.
# number only, unit L/kg dropped from output

Summary for this compound, [2H]C([2H])([2H])CC(=O)c1cnc(Nc2ccc(C(C)(C)O)c(F)n2)cc1Nc1cccc(-c2ncn(C([2H])([2H])[2H])n2)c1OC [Example 202] : Vd is 0.785

Summary for this compound, [2H]C([2H])([2H])CC(=O)c1cnc(NC(=O)C2CC2)cc1Nc1cccc(-c2ncn(C([2H])([2H])[2H])n2)c1OC [Example 195] : Vd is 0.688

Summary for this compound, [2H]C([2H])([2H])CC(=O)c1cnc(NC(=O)C2CC2)cc1Nc1nccc(-c2ncn(C([2H])([2H])[2H])n2)c1OC [Example 200] : Vd is 1.5

----------
TARGET_ENTITY: TYK2 (JH2 domain) (Homo sapiens (Human))
Sequence (P29597 589-875): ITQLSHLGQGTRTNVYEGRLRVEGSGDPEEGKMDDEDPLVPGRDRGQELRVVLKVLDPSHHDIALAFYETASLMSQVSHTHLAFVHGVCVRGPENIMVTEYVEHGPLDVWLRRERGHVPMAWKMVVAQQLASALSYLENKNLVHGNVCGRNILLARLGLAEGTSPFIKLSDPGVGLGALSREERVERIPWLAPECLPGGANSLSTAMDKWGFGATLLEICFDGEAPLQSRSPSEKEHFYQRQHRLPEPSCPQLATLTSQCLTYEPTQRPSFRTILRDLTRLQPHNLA
ASSAY_DETAILS: TYK2 JH2 domain binding assay (DiscoverX KINOMEscan)
EXPERIMENTAL_SETUP: 11-point 3-fold dilution, duplicate
pKd: −log10 of the molar value.
QUANTITY_KIND: pKd

Summary for this molecule, `[2H]C([2H])([2H])NC(=O)c1nnc(N2CCCC2=O)cc1Nc1cccc(-c2ncn(C)n2)c1OC` : pKd is 8.30 to 9.00

Summary for this molecule, `[2H]C([2H])([2H])NC(=O)c1nnc(N2CC(C)(C)C2)cc1Nc1cccc(-c2ncn(C)n2)c1OC` : pKd is 8.00 to 8.30

Summary for this molecule, `[2H]C([2H])([2H])NC(=O)c1nnc(N2CCCC2)cc1Nc1cccc(-c2ncn(C)n2)c1OC` : pKd is 8.30 to 9.00

Summary for this molecule, `[2H]C([2H])([2H])NC(=O)c1nnc(NC(=O)N2CC3(CCC3)C2)cc1Nc1cccc(-c2ncn(C)n2)c1OC` : pKd is ≥ 9.00

Summary for this molecule, `COc1c(Nc2cc(NC(=O)C3CC3)nc3cn(C)nc23)cccc1-c1ncn(C)n1` : pKd is 8.30 to 9.00

Summary for this molecule, `CNC(=O)c1nnc(NC(=O)N2CCC2)cc1Nc1cccc(-c2ncn(C)n2)c1OC` : pKd is ≥ 9.00

Summary for this molecule, `[2H]C([2H])([2H])NC(=O)c1nnc(N2CCN(CC)C2=O)cc1Nc1cccc(-c2ncn(C)n2)c1OC` : pKd is ≥ 9.00

Summary for this molecule, `[2H]C([2H])([2H])NC(=O)c1nnc(N2CCN(C(C)C)C2=O)cc1Nc1nccc(-c2ncn(C)n2)c1OC` : pKd is ≥ 9.00

Summary for this molecule, `Cn1cnc(-c2cccc3c2OCCOCCOc2nnccc2N3)n1` : pKd is 8.00 to 8.30

Summary for this molecule, `COc1c(Nc2cc(NC(=O)C3CC3)nnc2C(=O)C2CC2)cccc1-c1ncn(C)n1` : pKd is ≥ 9.00

Summary for this molecule, `COc1c(Nc2cc(Nc3cc(F)ccn3)ncc2C(=O)C2CC2)cccc1-c1ncn(C)n1` : pKd is ≥ 9.00

Summary for this molecule, `[2H]C([2H])([2H])CC(=O)c1cnc(Nc2ccc(C(C)(C)O)c(F)n2)cc1Nc1cccc(-c2ncn(C([2H])([2H])[2H])n2)c1OC` : pKd is ≥ 9.00

Summary for this molecule, `[2H]C([2H])([2H])NC(=O)c1nnc(N2CCN(C)C2=O)cc1Nc1cccc(-c2ncn(C)n2)c1OC` : pKd is ≥ 9.00

Summary for this molecule, `CCC(=O)c1cnc(NC(=O)C2CC2)cc1Nc1nccc(-c2ncn(C)n2)c1OC` : pKd is ≥ 9.00

Summary for this molecule, `[2H]C([2H])([2H])NC(=O)c1nnc(N2CCN(C3CCOCC3)C2=O)cc1Nc1cccc(-c2ncn(C)n2)c1OC` : pKd is ≥ 9.00

Summary for this molecule, `[2H]C([2H])([2H])NC(=O)c1nnc(N2CCN(C34CC(C3)C4)C2=O)cc1Nc1cccc(-c2ncn(C)n2)c1OC` : pKd is ≥ 9.00

Summary for this molecule, `[2H]C([2H])([2H])NC(=O)c1nnc(N2CCN(C3(C)CC3)C2=O)cc1Nc1cccc(-c2ncn(C)n2)c1OC` : pKd is ≥ 9.00

Summary for this molecule, [2H]C([2H])([2H])NC(=O)c1nnc(N2CCN(C3CCCOC3)C2=O)cc1Nc1cccc(-c2ncn(C)n2)c1OC (centres unmarked) : pKd is ≥ 9.00

Summary for this molecule, `[2H]C([2H])([2H])NC(=O)c1nnc(N2CCN(CC3(C)COC3)C2=O)cc1Nc1cccc(-c2ncn(C)n2)c1OC` : pKd is ≥ 9.00

Summary for this molecule, `[2H]C([2H])([2H])NC(=O)c1cnc(N2CCN(C(C)C)C2=O)cc1Nc1cccc(-c2ncn(C)n2)c1OC` : pKd is ≥ 9.00

Summary for this molecule, `[2H]C([2H])([2H])NC(=O)c1nnc(N2CC3(COC3)C2)cc1Nc1cccc(-c2ncn(C)n2)c1OC` : pKd is ≥ 9.00

Summary for this molecule, `[2H]C([2H])([2H])CC(=O)c1cnc(Nc2ccc(C(C)(C)O)c(F)n2)cc1Nc1nccc(-c2ncn(C([2H])([2H])[2H])n2)c1OC` : pKd is ≥ 9.00

Summary for this molecule, `[2H]C([2H])([2H])NC(=O)c1nnc(-n2ccc(C)n2)cc1Nc1cccc(-c2ncn(C)n2)c1OC` : pKd is 8.30 to 9.00

Summary for this molecule, `COc1c(Nc2cc(NC(=O)C3CC3)nc3c2C2=NC(=O)CN2C3)cccc1-c1ncn(C)n1` : pKd is 8.30 to 9.00

Summary for this molecule, `[2H]C([2H])([2H])NC(=O)c1nnc(N2CCN(C3CCC3)C2=O)cc1Nc1cccc(-c2ncn(C([2H])([2H])[2H])n2)c1OC` : pKd is ≥ 9.00

Summary for this molecule, `[2H]C([2H])([2H])NC(=O)c1nnc(N2CC(F)(F)C2)cc1Nc1cccc(-c2ncn(C)n2)c1OC` : pKd is 8.00 to 8.30

Summary for this molecule, [2H]C([2H])([2H])NC(=O)c1nnc(NC(=O)N2CCC2)cc1Nc1cccc(-c2ncn(C)n2)c1OC [Example 28] : pKd is ≥ 9.00

Summary for this molecule, `[2H]C([2H])([2H])NC(=O)c1nnc(N2CCN(C3(C)COC3)C2=O)cc1Nc1cccc(-c2ncn(C)n2)c1OC` : pKd is ≥ 9.00

Summary for this molecule, `[2H]C([2H])([2H])NC(=O)c1nnc(N/C(=N/O)C2CC2)cc1Nc1cccc(-c2ncn(C)n2)c1OC` : pKd is ≥ 9.00

----------
Assignment: determine reported clearance for the given compounds.
ASSAY_DETAILS: Pharmacokinetic study in cynomolgus monkeys
Format: in vivo
EXPERIMENTAL_SETUP: cynomolgus monkey, plasma, iv, I.V. (1 mg/kg)
# number only, unit mL/min/kg dropped from output

Summary for this compound, [2H]C([2H])([2H])CC(=O)c1cnc(Nc2ccc(C(O)(C([2H])([2H])[2H])C([2H])([2H])[2H])c(F)n2)cc1Nc1ncccc1S(C)(=O)=O [Example 203] : clearance is 27.6

Summary for this compound, [2H]C([2H])([2H])CC(=O)c1cnc(Nc2cccc(C#N)n2)cc1Nc1cccc(-c2ncn(C([2H])([2H])[2H])n2)c1OC [Example 198] : clearance is 16.1

Summary for this compound, [2H]C([2H])([2H])CC(=O)c1cnc(NC(=O)C2CC2)cc1Nc1cccc(-c2ncn(C([2H])([2H])[2H])n2)c1OC [Example 195] : clearance is 0.898

Summary for this compound, [2H]C([2H])([2H])CC(=O)c1cnc(NC(=O)C2CC2)cc1Nc1nccc(-c2ncn(C([2H])([2H])[2H])n2)c1OC [Example 200] : clearance is 1.87

----------
Assignment: determine reported IC50 for the given compounds.
Test system: IL12-induced p-STAT4 in human PBMC
ASSAY_DETAILS: IL-12 induced pSTAT4 in human PBMC
Format: cell-based
EXPERIMENTAL_SETUP: human PBMC, IL-12 10 ng/ml; read-out: p-STAT4 IC50

Summary for this compound, [2H]C([2H])([2H])NC(=O)c1nnc(N2CCN(CC(C)C)C2=O)cc1Nc1cccc(-c2ncn(C)n2)c1OC [Example 17] : IC50 is < 100 nM

Summary for this compound, [2H]C([2H])([2H])NC(=O)c1cnc(N2CCN(C(C)C)C2=O)cc1Nc1cccc(-c2ncn(C)n2)c1OC [Example 48] : IC50 is < 100 nM

Summary for this compound, CCC(=O)c1nnc(NC(=O)C2CC2)cc1Nc1cccc(-c2ncn(C)n2)c1OC [Example 25] : IC50 is 100 to 1000 nM

Summary for this compound, [2H]C([2H])([2H])NC(=O)c1nnc(N2CCN(CC3CCC3)C2=O)cc1Nc1cccc(-c2ncn(C)n2)c1OC [Example 96] : IC50 is < 100 nM

Summary for this compound, [2H]C([2H])([2H])NC(=O)c1nnc(N2CCN(C(C)C)C2=O)cc1Nc1cccc(-c2ncn(C)n2)c1OC([2H])([2H])[2H] [Example 14] : IC50 is < 100 nM

Summary for this compound, [2H]C([2H])([2H])NC(=O)c1nnc(N2CCN(C(C([2H])([2H])[2H])C([2H])([2H])[2H])C2=O)cc1Nc1cccc(-c2ncn(C([2H])([2H])[2H])n2)c1OC [Example 21] : IC50 is < 100 nM

Summary for this compound, [2H]C([2H])([2H])NC(=O)c1nnc(N2CCN(C3CC(C)C3)C2=O)cc1Nc1cccc(-c2ncn(C)n2)c1OC (stereo not shown) [Example 100] : IC50 is < 100 nM

Summary for this compound, [2H]C([2H])([2H])NC(=O)c1nnc(N2CCN(C3(C)COC3)C2=O)cc1Nc1cccc(-c2ncn(C)n2)c1OC [Example 16] : IC50 is < 100 nM

Summary for this compound, [2H]C([2H])([2H])NC(=O)c1nnc(N2CCN(CC#N)C2=O)cc1Nc1cccc(-c2ncn(C)n2)c1OC [Example 69] : IC50 is < 100 nM

Summary for this compound, [2H]C([2H])([2H])NC(=O)c1nnc(N2CCOC2=O)cc1Nc1cccc(-c2ncn(C)n2)c1OC [Example 60] : IC50 is > 10000 nM

Summary for this compound, COc1c(Nc2cc(NC(=O)C(C)C)ncc2C(=O)C2CC2)cccc1-c1ncn(C)n1 [Example 36] : IC50 is < 100 nM

Summary for this compound, [2H]C([2H])([2H])NC(=O)c1nnc(N2CCNC2=O)cc1Nc1cccc(-c2ncn(C)n2)c1OC [Example 1] : IC50 is < 100 nM

Summary for this compound, COc1c(Nc2cc(Nc3ccncn3)ncc2C(=O)C2CC2)cccc1-c1ncn(C)n1 [Example 52] : IC50 is < 100 nM

Summary for this compound, [2H]C([2H])([2H])NC(=O)c1nnc(N2CCN(C(C)CO)C2=O)cc1Nc1cccc(-c2ncn(C)n2)c1OC (stereo not shown) [Example 85] : IC50 is 100 to 1000 nM

Summary for this compound, [2H]C([2H])([2H])NC(=O)c1nnc(N2CCN(C3CC(F)(F)C3)C2=O)cc1Nc1cccc(-c2ncn(C)n2)c1OC [Example 10] : IC50 is < 100 nM

Summary for this compound, [2H]C([2H])([2H])NC(=O)c1nnc(N2CCN(C3CCOC3)C2=O)cc1Nc1cccc(-c2ncn(C)n2)c1OC (stereo not shown) [Example 80] : IC50 is < 100 nM

Summary for this compound, [2H]C([2H])([2H])NC(=O)c1nnc(N2CCN(CC3CC3)C2=O)cc1Nc1cccc(-c2ncn(C)n2)c1OC [Example 68] : IC50 is < 100 nM

Summary for this compound, COc1c(Nc2cc(NC(=O)C3CC3)nc3cn(C)nc23)cccc1-c1ncn(C)n1 [Example 55] : IC50 is 100 to 1000 nM

Summary for this compound, COc1c(Nc2cc(NC(=O)C3CC3)ncc2C(=O)C2CC2)cccc1-c1nnn(C)n1 [Example 51] : IC50 is < 100 nM

Summary for this compound, [2H]C([2H])([2H])NC(=O)c1nnc(N2CCN(C3CCC3)C2=O)cc1Nc1cccc(-c2ncn(C([2H])([2H])[2H])n2)c1OC [Example 22] : IC50 is < 100 nM

Summary for this compound, COc1c(Nc2cc(NC(=O)C3CC3)nc3c2C(=O)NC3)cccc1-c1ncn(C)n1 [Example 43] : IC50 is > 10000 nM

Summary for this compound, COc1c(Nc2cc(NC(=O)C3CC3)nnc2C(=O)C(F)F)cccc1-c1ncn(C)n1 [Example 44] : IC50 is 100 to 1000 nM

Summary for this compound, [2H]C([2H])([2H])NC(=O)c1nnc(N2CCN(C3CCC3)C2=O)cc1Nc1cccc(-c2ncn(C)n2)c1OC [Example 11] : IC50 is < 100 nM

Summary for this compound, COc1c(Nc2cc(Nc3ccccn3)ncc2C(=O)C2CC2)cccc1-c1ncn(C)n1 [Example 37] : IC50 is < 100 nM

Summary for this compound, CNC(=O)c1nnc(NC(=O)N2CCC2)cc1Nc1cccc(-c2ncn(C)n2)c1OC [Example 30] : IC50 is < 100 nM

Summary for this compound, [2H]C([2H])([2H])NC(=O)c1nnc(N2CCC(C)(C)C2=O)cc1Nc1cccc(-c2ncn(C)n2)c1OC [Example 7] : IC50 is 100 to 1000 nM

Summary for this compound, [2H]C([2H])([2H])NC(=O)c1nnc(N2CCN(C(C)C3CC3)C2=O)cc1Nc1cccc(-c2ncn(C)n2)c1OC (stereo not shown) [Example 82] : IC50 is < 100 nM

Summary for this compound, [2H]C([2H])([2H])NC(=O)c1nnc(N2CCN(CC3CCOC3)C2=O)cc1Nc1cccc(-c2ncn(C)n2)c1OC (stereo not shown) [Example 71] : IC50 is 100 to 1000 nM
